# Test system: LOX IMVI
# assay explanation: NCI tumour cell line growth inhibition, 48 h
Activity calls are given as the source filed them. Cut-off read from the data, not from the text of the source: active = GI50 up to about 1.1 µM and inactive = higher.
quantity kind: GI50

Example cases with answers are listed next.
OCC1OC(n2cnc3c2N=CNC[C@H]3O)C(Cl)C1O (stereo partly drawn) | > 100 µM (inactive)
O=C(CCN(CCO)CCO)Nc1ccc2c(c1)C(=O)c1ccc(NC(=O)CCN(CCO)CCO)cc1C2=O | 14.2 µM (inactive)

# lookup: GI50 of CC(=O)O[C@@H]1[C@H]2O[C@H]2[C@H]2O[C@@]2(COC(=O)c2ccccc2)[C@H]1OC(C)=O
> 100 µM (inactive)

---

# Test system: 786-0
# assay explanation: NCI tumour cell line growth inhibition, 48 h
Activity calls are given as the source filed them. Cut-off read from the data, not from the text of the source: active = GI50 up to about 1.1 µM and inactive = higher.
# GI50 per record follows

CC(C)(Cc1ccccc1)NC1=NCCO1 | > 100 µM (inactive)
OC(c1nc2ccccc2[nH]1)C(O)C(O)C(O)c1nc2ccccc2[nH]1 (stereo not given) | > 100 µM (inactive)
Cc1ccc(-c2c(C#N)c(-c3ccc(N(C)C)cc3)c(C#N)c(=O)n2NS(=O)(=O)c2ccccc2)cc1 | 22.9 µM (inactive)
O=C1N/C(=N/N=C/c2c[nH]c3ccccc23)N/C1=C\c1c[nH]c2ccccc12 | 17.8 µM (inactive)

--- query ---
# lookup: GI50 of CCCCCCCCCCCCCCCCCCNC(=O)OCC(CNS(=O)(=O)CCC[n+]1cccc2ccccc21)COC (stereo not given)
3.45 µM (inactive)

---

# Tested on: NCI-H460
# assay explanation: NCI tumour cell line growth inhibition, 48 h
Active and inactive are the calls of the source. Rule as the data show it: active = GI50 up to about 1.1 µM and inactive = higher.
# GI50 per record follows

Example cases with answers are listed next.
COc1ccc(C(OC(C)=O)C2C(=C(C#N)C#N)c3ccccc3C2=C(C#N)C#N)cc1 (stereo not given) | 28.1 µM (inactive)
O=C1C(Cl)=C(N2C(=O)CCC2=O)C(=O)c2ccccc21 | 53.6 µM (inactive)
COCOCc1cc(OCc2ccccc2)c(OC)cc1Br | > 100 µM (inactive)
C/C(=C1/N=C(c2cc([N+](=O)[O-])ccc2Cl)N(c2ccc(Br)cc2)C1=O)c1cc2ccccc2oc1=O | 26.3 µM (inactive)
Cc1nc2c(nc1C)-c1[nH]c3c(c1C(=O)C2=O)CCCC3=O | 3.94 µM (inactive)
COc1cc2c(cc1OC)-c1c(oc3cc(OC4OC(CO)C(O)C(O)C4O)c(OC)cc3c1=O)C(O)O2 (stereo not given) | > 100 µM (inactive)
COC(=O)CNC(=O)CCC(C)[C@H]1CCC2C3C(C[C@H](OC(C)=O)[C@@]21C)[C@@]1(C)CCC2(C[C@H]1C[C@H]3OC(C)=O)OOC1(CC[C@]3(C)C4C[C@H](OC(C)=O)[C@@]5(C)C(CC[C@@H]5C(C)CCC(=O)NCC(=O)OC)C4[C@H](OC(C)=O)C[C@@H]3C1)OO2 (stereo not given in full) | 2.07 µM (inactive)
CN(C)CCNC(=O)c1cccc2c(Nc3ccc(S(=O)(=O)N=C(N)N)cc3)c3ccccc3nc12 | 3.17 µM (inactive)

// fetch NCI-H460 GI50 for c1ccc(-c2cc(C3CO3)c3ccccc3n2)cc1 (stereo not given)
18.8 µM (inactive)

// fetch NCI-H460 GI50 for COC1=C(OC)C(=O)C(Cc2c(Cl)nc3n2CCS3)=C(C)C1=O
15 µM (inactive)
